Values were extracted from patent US20090209554A1.

target: transketolase (TK) in colon carcinoma HCT116 cells (Homo sapiens, UniProt P29401); construct: endogenous in cells; test: Cellular transketolase inhibition assay in HCT116; conditions: colon carcinoma HCT116, thiamine-free DMEM, 48 h after compound treatment, TK activity in lysate
pIC50: −log10 of the molar value.
Classify as follows. Reported pIC50 greater than or equal to 7: satisfied. Reported pIC50 below: not satisfied.

{"compound": "Cc1c(CCO)sc[n+]1Cc1ccc(N2C(=O)c3ccccc3C2=O)nc1", "categoryLabel": "not satisfied"}
{"compound": "COc1ccc(C[n+]2csc(CCO)c2C)c(NC(C)=O)n1", "categoryLabel": "not satisfied"}
{"compound": "Cc1c(CCO)sc[n+]1Cc1cc([N+](=O)[O-])ccc1O", "categoryLabel": "not satisfied"}
{"compound": "Cc1c(CCO)sc[n+]1Cc1ccc(C(=O)O)cc1", "categoryLabel": "not satisfied"}
{"compound": "Cc1c(CCO)sc[n+]1Cc1nccnc1N", "categoryLabel": "not satisfied"}
{"compound": "CC(=O)OCCc1sc[n+](Cc2ccc(C)nc2N)c1C", "categoryLabel": "satisfied"}
{"compound": "Cc1cc(C[n+]2csc(CCO)c2C)no1", "categoryLabel": "not satisfied"}
{"compound": "Cc1c(CCO)sc[n+]1Cc1ccsc1C#N", "categoryLabel": "not satisfied"}
{"compound": "Cc1cc(C)c(C[n+]2cc(CCO)sc2C)c(N)n1", "categoryLabel": "not satisfied"}
{"compound": "CCc1sc(CCO)c(C)[n+]1Cc1ccc(C)nc1N", "categoryLabel": "satisfied"}
{"compound": "CC(=O)Nc1ccc(C[n+]2csc(CCO)c2C)c(N)n1", "categoryLabel": "not satisfied"}
{"compound": "CCc1c(CCO)sc[n+]1Cc1ccc(C)nc1N", "categoryLabel": "not satisfied"}
{"compound": "Cc1ncc(C[n+]2c(C(C)O)sc(CCO)c2C)c(N)n1 (stereo not shown)", "categoryLabel": "not satisfied"}
{"compound": "Cc1c(CCO)sc[n+]1Cc1ccncc1", "categoryLabel": "not satisfied"}
{"compound": "Cc1ccc(C[n+]2c(C)sc(CCO)c2C)c(N)n1 [drawing 48]", "categoryLabel": "satisfied"}
{"compound": "Cc1c(CCO)sc[n+]1Cc1ccccc1N", "categoryLabel": "not satisfied"}

====

Measured IC50, listed per entry for reference.
Biological target: transketolase (TK) in colon carcinoma HCT116 cells (Homo sapiens)
Construct: endogenous in cells
Sequence (P29401 1-623): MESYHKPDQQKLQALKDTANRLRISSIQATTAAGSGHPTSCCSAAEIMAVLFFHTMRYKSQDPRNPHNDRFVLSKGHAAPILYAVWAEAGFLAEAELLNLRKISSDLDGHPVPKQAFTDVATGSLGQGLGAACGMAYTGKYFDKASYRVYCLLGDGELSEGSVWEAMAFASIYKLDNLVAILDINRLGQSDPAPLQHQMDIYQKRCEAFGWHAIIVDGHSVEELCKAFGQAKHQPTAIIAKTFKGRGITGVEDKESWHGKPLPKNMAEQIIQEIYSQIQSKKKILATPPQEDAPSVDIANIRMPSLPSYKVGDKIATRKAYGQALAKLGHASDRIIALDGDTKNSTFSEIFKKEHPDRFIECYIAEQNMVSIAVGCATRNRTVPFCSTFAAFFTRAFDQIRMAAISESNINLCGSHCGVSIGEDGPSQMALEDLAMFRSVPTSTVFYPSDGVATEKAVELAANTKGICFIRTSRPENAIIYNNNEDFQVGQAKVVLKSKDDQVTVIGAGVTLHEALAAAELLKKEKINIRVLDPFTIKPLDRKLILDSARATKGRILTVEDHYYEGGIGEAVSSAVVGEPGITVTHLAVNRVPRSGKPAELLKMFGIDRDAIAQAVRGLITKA
Assay: Cellular transketolase inhibition assay in HCT116
Details: colon carcinoma HCT116, thiamine-free DMEM, 48 h after compound treatment, TK activity in lysate

{"smilesRecord": "Cc1c(CCO)sc[n+]1Cc1ccsc1C(N)=O", "IC50": "> 33 µM"}
{"smilesRecord": "Cc1c(CCO)sc[n+]1Cc1ccccc1", "IC50": "> 100 µM"}
{"smilesRecord": "COC(=O)c1cncc(C[n+]2csc(CCO)c2C)c1", "IC50": "> 100 µM"}
{"smilesRecord": "COc1ncc(CO)c(N)n1", "IC50": "> 100 µM"}
{"smilesRecord": "Cc1c(CCO)sc[n+]1Cc1ccccn1", "IC50": "> 100 µM"}
